Cited source for all entries: patent US8372848B2

# assay-system: rat MCH1R (Rattus norvegicus, UniProt P97639)
# Sequence (P97639 whole entry): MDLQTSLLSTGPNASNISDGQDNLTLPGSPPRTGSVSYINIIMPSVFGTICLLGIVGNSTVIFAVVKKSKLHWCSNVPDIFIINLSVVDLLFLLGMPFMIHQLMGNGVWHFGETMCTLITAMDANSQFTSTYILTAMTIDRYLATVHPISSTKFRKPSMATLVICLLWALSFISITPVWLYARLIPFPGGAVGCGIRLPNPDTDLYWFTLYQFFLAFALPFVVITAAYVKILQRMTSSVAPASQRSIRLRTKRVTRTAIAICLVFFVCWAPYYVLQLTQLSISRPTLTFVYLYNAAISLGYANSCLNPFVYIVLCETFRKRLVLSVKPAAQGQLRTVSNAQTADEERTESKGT
# protocol: [125I] MCH binding to membrane fractions of MCH1R expressing HEK-293T
# test-conditions: mean ±S.E.M.; 0.1 nM radioligand; read-out: IC50 for displacement of [125I] MCH binding
reported-property: IC50 (nM)
Give just the numeric value; nM need not be written.

Q) Entry C[C@@H](CNCc1ccccc1)N1C[C@H](CCCNC(=N)N)N(CCc2cccc(F)c2)C1=S [TPI 1361-17] has what IC50?
A) 140
